Test system: L. donovani MHOM/IN/80/DD8 (ATCC50212)
Assay: L. donovani DD8 intracellular (THP-1) amastigote assay
Type: cell-based
Settings: Leishmania donovani, read-out: antiparasitic IC50 L. donovani
endpoint: IC50

Task: Enter IC50 (test system L. donovani MHOM/IN/80/DD8 (ATCC50212)) for O=c1[nH]ccn2cc([N+](=O)[O-])nc12 [17a, 2-Nitroimidazo[1,2-a]pyrazin-8(7H)-one]
Result: > 80 µM

Task: Enter IC50 (test system L. donovani MHOM/IN/80/DD8 (ATCC50212)) for O=c1c2nccn2ccn1Cc1ccc(F)cc1 [20c]
Result: > 80 µM

Task: Enter IC50 (test system L. donovani MHOM/IN/80/DD8 (ATCC50212)) for Cc1ccc(CCn2ccn3cc([N+](=O)[O-])nc3c2=O)cc1 [17n]
Result: > 80 µM

Each recorded value in this set is attributed to paper PMC6311682.
